B1: library; a variant is named by its letters at X, in order (parent)
chain: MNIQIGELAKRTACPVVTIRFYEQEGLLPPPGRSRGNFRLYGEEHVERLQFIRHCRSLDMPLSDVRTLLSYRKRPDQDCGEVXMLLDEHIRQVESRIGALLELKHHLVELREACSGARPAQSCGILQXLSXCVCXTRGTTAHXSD

Variants of: B1
Test: sfGFP reporter fluorescence (15 h) (µM FITC); higher = higher leak
Settings: library round: Round 2; ligand: none
measured.endpoint: sfGFP reporter fluorescence
Answers are plain numbers.

Please state, for each entry, its recorded sfGFP reporter fluorescence.
1. NGDDP M60F P61N D64K K104V
2. NIDAK L107C G124A
3. NGDDP D64K V108E R111L
4. NGADY L107C
5. NTDAP L107C

Output line:
1. 0.395
2. 0.814
3. 0.0746
4. 1.36
5. 0.819
